# system: NK1 (Homo sapiens, UniProt P25103)
# Sequence (P25103 whole entry): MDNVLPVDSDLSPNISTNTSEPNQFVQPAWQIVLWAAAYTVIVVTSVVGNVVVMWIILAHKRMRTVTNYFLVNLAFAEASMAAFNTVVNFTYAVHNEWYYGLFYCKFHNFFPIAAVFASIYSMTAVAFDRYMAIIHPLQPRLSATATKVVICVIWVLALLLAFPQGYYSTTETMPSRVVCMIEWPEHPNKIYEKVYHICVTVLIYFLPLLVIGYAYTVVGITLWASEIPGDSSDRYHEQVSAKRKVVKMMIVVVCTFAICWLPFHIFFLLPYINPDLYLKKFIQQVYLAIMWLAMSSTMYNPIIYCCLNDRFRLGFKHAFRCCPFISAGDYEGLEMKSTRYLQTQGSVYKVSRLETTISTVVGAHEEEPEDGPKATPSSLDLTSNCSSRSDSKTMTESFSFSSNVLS
# test method notes: Signal transduction (ST), intracellular Ca++ (FLIPR), NK1 antagonism
# Format: cell-based
# conditions: read-out: pIC50 NK1 (converted)
Would you mind telling me the reported log10 of IC50 of each entry?
Scale: log10; quantity: IC50; unit before log: nM

If you can, please state the reported log10 of IC50 value of Cc1nnsc1C(=O)N1CCCC(N2CCN([C@H]3CCN(C(=O)c4cc(C(F)(F)F)cc(C(F)(F)F)c4)[C@H](Cc4ccccc4)C3)CC2)C1 (stereo partly drawn) .
1.00

Consider next the molecule O=C(c1ccccc1F)N1CCCC(N2CCN([C@H]3CCN(C(=O)c4cc(C(F)(F)F)cc(C(F)(F)F)c4)[C@H](Cc4ccccc4)C3)CC2)C1 (stereo partly drawn) in the same way.
1.20

Request: O=C(c1cc(C(F)(F)F)cc(C(F)(F)F)c1)N1CCC(N2CCN(C3CCCN(Cc4ccccc4)C3)CC2)CC1Cc1ccccc1 (stereo not drawn)
1.70

Request: O=C(c1cc(C(F)(F)F)cc(C(F)(F)F)c1)N1CCC(N2CCN(C3CCCNC3)CC2)CC1Cc1ccccc1 (stereo not drawn) [Compound 108]
1.90

What about O=C(c1cc(C(F)(F)F)cc(C(F)(F)F)c1)N1CC[C@@H](N2CCCN(C3CCCN(S(=O)(=O)c4cccs4)C3)CC2)C[C@H]1Cc1ccccc1 (stereo partly drawn) ?
2.30

Moving on to Cc1ccccc1C(=O)N1CCCC(N2CCN([C@H]3CCN(C(=O)c4cc(C(F)(F)F)cc(C(F)(F)F)c4)[C@H](Cc4ccccc4)C3)CC2)C1 (stereo partly drawn)
1.30
